Hello, the source for this data is PubChem BioAssay, in case you need it.

# target-desc: Fibroblast growth factor 2 (Homo sapiens)
# test-details: basic fibroblast growth factor binding to printed compounds – biochemical, small-molecule microarray, 635/667 nm fluorescence, primary screen (AID 1133)
# assay-conditions: FGF2, fluorescence 635/667, higher = more signal
quantity-kind: composite z-score

{"compound": "C[N+](C)(C)CCCCNC(=O)[C@H]1C[C@H]2C(=O)NCC(=O)N2[C@H]1c1ccc(O)cc1", "target-desc": "Fibroblast growth factor 2 (Homo sapiens)", "meas-value": 1.91}
{"compound": "C[N+](C)(C)CCCCCCNC(=O)[C@H]1C[C@H]2C(=O)N3CCC[C@H]3C(=O)N2[C@H]1c1cccc(OCCO)c1", "target-desc": "Fibroblast growth factor 2 (Homo sapiens)", "meas-value": 1.35}
{"compound": "O=C1N(Cc2ccccc2)c2ccccc2[C@H]2OC(c3ccc(OCCCO)cc3)=N[C@@]12CCS(=O)(=O)c1ccccc1", "target-desc": "Fibroblast growth factor 2 (Homo sapiens)", "meas-value": 1.36}
{"compound": "C=C(C)[C@@H]1CC=C(C(O)C2C=CC3C(=O)N(C4CCCCC4)C(=O)C3N2Nc2ccc(OC)cc2)CC1 (some centres undefined)", "target-desc": "Fibroblast growth factor 2 (Homo sapiens)", "meas-value": 0.723}

###

# test-details: probe aDKK1 binding to arrayed compounds – biochemical, biotinylated probe, 635/667 nm fluorescence, primary screen (AID 1099);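 also: score merges 667nm spot fluorescence with signal to noise across triplicate slides; reference of the scale not given here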
# assay-conditions: small-molecule microarray, higher = more signal
Lab note: anything with composite z-score at or over -0.05 counts as Condition met; the rest go in Condition not met.

{"molecule": "COCCCNC(=O)[C@@]1(C)c2ccccc2C(=O)N(c2ccc(C)cn2)[C@H]1c1ccc(CO)cc1", "class": "Condition not met"}
{"molecule": "COc1ccc([Si](C)(C)[C@@H]2[C@@H](CC(=O)N3Cc4ccccc4C[C@H]3CO)O[C@]3(C(=O)N(Cc4cccc(N5CCCCC5=O)c4)c4ccccc43)[C@H]2C)cc1", "class": "Condition not met"}
{"molecule": "C[N+](C)(C)CCCCNC(=O)[C@H]1C[C@H]2C(=O)NCC(=O)N2[C@H]1c1ccc(O)cc1", "class": "Condition met"}
{"molecule": "COCCOC(=O)N1C(=O)[C@@]2(c3cc(C#CCCO)ccc31)[C@H](C(=O)NC[C@H](O)c1ccccc1)[C@H]1C(=O)O[C@H](c3ccccc3)[C@H](c3ccccc3)N1[C@@H]2c1ccccc1OCCO", "class": "Condition met"}
{"molecule": "CC1=C2[C@@H](CCc3ccccc3)OB(O)C[C@@H]2[C@@H]2C(=O)C=CC(=O)[C@@H]2C1", "class": "Condition not met"}
{"molecule": "COC(=O)C(CC#Cc1ccc2c(c1)[C@]1(C(=O)N2)[C@H](c2ccc(O)cc2)N2[C@H](c3ccccc3)[C@H](c3ccccc3)OC(=O)[C@H]2[C@@H]1C(N)=O)C(=O)OC", "class": "Condition not met"}
{"molecule": "COCCCNC(=O)[C@@]1(Cc2ccccc2N=[N+]=[N-])N=C(c2ccc(OCCCO)cc2)O[C@H]1c1ccccc1CN=[N+]=[N-]", "class": "Condition met"}
{"molecule": "O=C1O[C@H](c2ccccc2)[C@H](c2ccccc2)N2[C@H]1[C@@H](C(=O)N1CCN(c3ncccn3)CC1)[C@]1(C(=O)Nc3ccc(C#CCCO)cc31)[C@H]2c1ccc(OCCO)cc1", "class": "Condition met"}
{"molecule": "Cc1ccc(N2C(=O)c3ccccc3[C@](C)(C(=O)NC(C)C)[C@@H]2c2ccc(CO)cc2)nc1", "class": "Condition not met"}
{"molecule": "O=C1c2ccccc2[C@](Cc2ccccc2I)(C(=O)NCC(F)(F)F)[C@H](c2ccc(CO)cc2)N1Cc1ccccc1", "class": "Condition met"}
{"molecule": "CCOC(=O)C1=CCC(c2cccc(Cl)c2)O1 (centres undefined)", "class": "Condition met"}
{"molecule": "N#Cc1ccc(NN2C(C(O)c3ccco3)C=CC3C(=O)N(c4ccccc4)C(=O)C32)cc1 (centres undefined)", "class": "Condition met"}
{"molecule": "COC(=O)[C@@]1(Cc2ccc(OC)cc2)[C@H]2c3cc(C(=O)N(C)C)n(Cc4cc(F)c(F)c(F)c4)c3C[C@H]2CN1C(=O)c1ccccc1", "class": "Condition met"}
{"molecule": "O=C1O[C@H](c2ccccc2)[C@H](c2ccccc2)N2[C@H]1[C@@H](C(=O)N1CCCCCCC1)[C@]1(C(=O)Nc3ccccc31)[C@H]2c1ccc(O)cc1", "class": "Condition met"}

###

# test-details: Pseudomonas biofilm growth suppression – PAO1 strain, BacTiter-Glo luminescence, LB-PBS, primary screen (AID 1144)
# assay-conditions: P. aeruginosa PAO1 biofilm, 12 h, higher = more signal
Lab note: anything with z-score at or over -0.9 counts as true; the rest go in false.

{"compound": "C[C@H]1NC(=O)C([C@@H](C)OCc2ccccc2)NC(=O)[C@@]23C(=O)N[C@@H](Cc4ccccc4)C2[C@H](C)[C@@]2(C)O[C@H]2C3/C=C/CC/C=C/CNC1=O (some centres not stated)", "class": "true"}
{"compound": "O=C1C2C=CC(C(O)c3ccccn3)N(Nc3ccccc3)C2C(=O)N1c1ccccc1 (configuration not stated)", "class": "true"}
{"compound": "CN(C)CCCCNC(=O)[C@H]1C[C@H]2C(=O)N[C@@H](CCCC[N+](C)(C)C)C(=O)N2[C@H]1c1cccc(OCCO)c1", "class": "false"}
{"compound": "CCCN1C(=O)[C@@H]2Cc3c([nH]c4ccccc34)[C@@H](c3cccc(O)c3)N2C1=O", "class": "true"}
{"compound": "COCCCNC(=O)[C@@]1(Cc2ccccc2I)c2ccccc2C(=O)N(Cc2ccccc2Cl)[C@H]1c1ccc(CO)cc1", "class": "false"}
{"compound": "CN(C)C(=O)[C@@]1(CCS(=O)(=O)c2ccccc2)N=C(c2ccc(OCCCO)cc2)O[C@H]1c1ccccc1CN=[N+]=[N-]", "class": "true"}
{"compound": "CCOC(=O)C[C@H]1[C@H](OC(=O)c2cc3ccccc3oc2=O)[C@@H](NC(=O)c2ccc3ccccc3n2)c2cc(OCCCO)ccc2N1C(=O)c1ccc2ccccc2n1", "class": "true"}

###

# Tested on: Sam68 (KHDRBS1)
# test-details: compounds binding KHDRBS1 protein – biochemical, small-molecule microarray, 635 nm fluorescence, primary screen (AID 1125);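 also: score merges 667 nm channel intensity with signal to noise over triplicate slides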
# assay-conditions: higher = more signal
Lab note: anything with composite z-score at or over 1 counts as Criterion met; the rest go in Criterion not met.

{"compound": "COCCOC(=O)N1C(=O)[C@@]2(c3ccccc31)[C@H](c1ccc(OCCO)cc1)N1[C@H](c3ccccc3)[C@H](c3ccccc3)OC(=O)[C@H]1[C@@H]2C(=O)NC[C@H](O)c1ccccc1", "target-desc": "Sam68 (KHDRBS1)", "class": "Criterion met"}
{"compound": "C=C(CCCC)/C(=C/C[C@@H](OC(=O)c1ccncc1)c1ccccc1OCCO)c1cc(C(=O)OC)ccc1OC", "target-desc": "Sam68 (KHDRBS1)", "class": "Criterion met"}
{"compound": "O=C1N(Cc2ccccc2)c2ccccc2[C@H]2OC(c3ccc(OCCCO)cc3)=N[C@@]12CCS(=O)(=O)c1ccccc1", "target-desc": "Sam68 (KHDRBS1)", "class": "Criterion met"}
{"compound": "O=C1O[C@@H](c2ccccc2)[C@@H](c2ccccc2)N2[C@@H](c3ccc(O)cc3)[C@]3(C(=O)Nc4ccc(C#CC5(O)CCCCCC5)cc43)[C@@H](C(=O)N3CCN(c4ncccn4)CC3)[C@H]12", "target-desc": "Sam68 (KHDRBS1)", "class": "Criterion met"}
{"compound": "C=CC[C@@]1(C(=O)NCCN2CCOCC2)N=C(c2ccc(OCCCO)cc2)O[C@@H]1c1ccccc1", "target-desc": "Sam68 (KHDRBS1)", "class": "Criterion met"}
{"compound": "Cc1ccc(-c2cccc(=O)o2)cc1", "target-desc": "Sam68 (KHDRBS1)", "class": "Criterion not met"}
{"compound": "C=CC[C@]1(C(=O)NCC(O)CO)N=C(c2ccc(OCCCO)cc2)O[C@H]1c1ccccc1N=[N+]=[N-] (some centres not stated)", "target-desc": "Sam68 (KHDRBS1)", "class": "Criterion not met"}

###

As shown below, each of these compounds has a reported z-score value.
# test-details: growth modulation of vineyard yeast isolate – strain RM11-1a, OD600, basal, 24 h, primary screen (AID 1177);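 also: cultures grown under basal conditions with no added stressor; test concentration not given here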
# assay-conditions: S. cerevisiae RM11-1a growth, OD600, 24 h; higher = more signal, called active from +8 up or from −8 down
quantity-kind: z-score

{"chem-smiles": "COC(=O)[C@@]1(Cc2ccc(F)cc2)[C@H]2c3cc(C(=O)N(C)C)n(CCSCCO)c3C[C@H]2CN1C(=O)c1ccccc1", "quantity-kind": "z-score", "meas-value": 0.0891}
{"chem-smiles": "COC(=O)[C@@]1(Cc2ccccc2)[C@H]2c3cc(C(=O)N4CCCC4)n(Cc4ccc(OC(F)(F)F)cc4)c3C[C@H]2CN1C(=O)c1ccccc1", "quantity-kind": "z-score", "meas-value": 1.85}
{"chem-smiles": "CN(C)C(=O)[C@@]1(CCS(=O)(=O)c2ccccc2)N=C(c2ccc(OCCCO)cc2)O[C@H]1c1ccccc1CN=[N+]=[N-]", "quantity-kind": "z-score", "meas-value": -0.791}
{"chem-smiles": "CCC[C@@H]1C[C@@]1(CCC)[C@@H](NC(=O)c1ccco1)c1ccc(Cl)cc1", "quantity-kind": "z-score", "meas-value": 0.288}
